assay: ATG_DR4_LXR_CIS: Attagene CIS-FACTORIAL HepG2 Assay for human Liver X Receptor (LXR), DR4 submotif (AID 2282929); details: HepG2 Attagene DR4 cis-reporter, mRNA transcription; actives raise or lower the signal
The source made the active and inactive calls. The calls were made as follows: active = hit-call score of the fitted dose curve at least 0.9, where 1 is the maximum; inactive = score below 0.9.
Hello, when you answer, please use one of the following outcomes: T for active, F for inactive

Consider the worked cases shown below.
>  <Compound>
Cc1cccc(OCCOc2cccc(C)c2)c1

>  <Class Label>
F

$$$$
>  <Compound>
CC(=O)c1ccc2c(c1)CCCC2

>  <Class Label>
F

$$$$

What is the recorded call for this compound in the test? Clc1nc2ccccc2s1
F

# lookup: test call for O=S(=O)(O)c1ccc2cc(O)c(S(=O)(=O)O)cc2c1
T

I would be grateful if you could indicate the recorded call for CCCCCC(C)O (stereo not drawn) .
F

Please indicate how the test categorized O=c1c2ccccc2nnn1CCl .
F

Could you kindly confirm the outcome this assay logged for c1ccc(-c2ccccn2)nc1 ?
F

What did this assay record as the result for CCOc1nc(F)cc2nc(S(=O)(=O)Nc3c(Cl)cccc3C(=O)OC)nn12 ?
F

---

target: Signal transducer and activator of transcription 3 (Homo sapiens); test: ATG_STAT3_CIS: Attagene CIS-FACTORIAL HepG2 Assay for human Signal Transducer and Activator of Transcription 3 (STAT3) (AID 2282963); conditions: HepG2, Attagene cis-factorial STAT3 reporter transcription; actives raise or lower the signal
Calls of active or inactive are those of the source. How the source made its calls: active means hit-call score of the fitted dose curve at least 0.9, where 1 is the maximum; inactive means score below 0.9.
Reply using exactly one outcome from y = active, n = inactive

Some entries whose results are on file:
>  <Compound>
N[C@H]1C(O)O[C@H](CO)[C@H](O)[C@@H]1O (stereo not given in full)

>  <Class Label>
n

$$$$
>  <Compound>
O=C(OCC1CCC2OC2C1)C1CCC2OC2C1 (stereo not given)

>  <Class Label>
n

$$$$
>  <Compound>
CCN(CC)c1ccc(C(=O)c2ccccc2C(=O)O)c(O)c1

>  <Class Label>
n

$$$$
>  <Compound>
CCCCCCCCC(=O)OCC

>  <Class Label>
n

$$$$

Please let me know the test result on file for COC(=O)C1=C(C)NC(C)=C(C(=O)OCC(C)C)C1c1ccccc1[N+](=O)[O-] (stereo not given) .
n

# outcome recorded in this test, key = S=C(NC1CCCCC1)NC1CCCCC1
n

Please let me know the test result on file for CCCCCCCCCCCCCCCC(=O)OCC .
n

I would be grateful if you could indicate the recorded call for COc1c2ccoc2cc2oc(=O)ccc12 .
n

Tell me the recorded outcome of this test for CC1=Nc2ccc3ccccc3c2C1(C)C .
n

---

biological target: Heat shock factor protein 1 (Homo sapiens) (UniProt Q00613); assay: ATG_HSE_CIS: Attagene CIS-FACTORIAL HepG2 Assay for human Heat Shock Transcription Factor 1 (HSE) (AID 2282953); conditions: HepG2 HSE cis-reporter, Attagene RNA transcription; actives raise or lower the signal
Sequence (Q00613 whole entry, looked up): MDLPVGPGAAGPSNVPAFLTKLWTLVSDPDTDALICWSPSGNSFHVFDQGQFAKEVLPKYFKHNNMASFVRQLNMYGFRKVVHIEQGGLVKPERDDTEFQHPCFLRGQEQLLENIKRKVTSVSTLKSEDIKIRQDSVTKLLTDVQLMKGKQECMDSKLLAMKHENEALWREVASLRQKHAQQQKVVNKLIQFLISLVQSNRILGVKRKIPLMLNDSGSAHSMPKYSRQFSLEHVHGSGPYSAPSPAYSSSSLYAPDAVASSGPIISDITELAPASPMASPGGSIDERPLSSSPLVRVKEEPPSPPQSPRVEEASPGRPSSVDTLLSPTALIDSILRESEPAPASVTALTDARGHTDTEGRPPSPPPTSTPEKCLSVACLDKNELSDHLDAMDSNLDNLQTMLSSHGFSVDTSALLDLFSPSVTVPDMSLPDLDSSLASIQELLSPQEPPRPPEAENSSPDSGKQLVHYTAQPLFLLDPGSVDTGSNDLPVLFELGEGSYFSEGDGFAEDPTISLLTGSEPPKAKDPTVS
Active and inactive are the calls of the source. How the source made its calls: active means hit-call score of the fitted dose curve at least 0.9, where 1 is the maximum; inactive means score below 0.9.
Pick one and only one: Y (active), N (inactive)

>  <Compound>
O=C(Nc1ccccc1)c1ccccc1O

>  <Subject Of Test>
Heat shock factor protein 1 (Homo sapiens) (UniProt Q00613)

>  <Class Label>
N

$$$$
>  <Compound>
O=S(=O)(O)c1ccc2cc(O)c(S(=O)(=O)O)cc2c1

>  <Subject Of Test>
Heat shock factor protein 1 (Homo sapiens) (UniProt Q00613)

>  <Class Label>
N

$$$$
>  <Compound>
CCCCCC(C)O (stereo not given)

>  <Subject Of Test>
Heat shock factor protein 1 (Homo sapiens) (UniProt Q00613)

>  <Class Label>
N

$$$$
>  <Compound>
O=C(C=Cc1ccccc1)OCc1ccccc1

>  <Subject Of Test>
Heat shock factor protein 1 (Homo sapiens) (UniProt Q00613)

>  <Class Label>
N

$$$$
>  <Compound>
C=CC(C)(CCC=C(C)C)OC(=O)CC(C)C (stereo not given)

>  <Subject Of Test>
Heat shock factor protein 1 (Homo sapiens) (UniProt Q00613)

>  <Class Label>
Y

$$$$

Outcome? FC(F)(F)C(=NOCC1OCCO1)c1ccc(Cl)cc1
N

Call for entry O=c1c2ccccc2nnn1CCl :
N

So what was the verdict on N=c1ccn2c(n1)O[C@H]1[C@H](O)[C@@H](CO)O[C@H]12 in this test?
N

Short answer needed: outcome of this test for O=C1Nc2ccccc2C1(c1ccc(O)cc1)c1ccc(O)cc1 ?
Y

Recorded call for COC=O ?
N

Could you please tell me the result logged for CCCCCCCC(C)=O in this assay?
N

Would you mind telling me which call this test gave CC(C)c1ccc2cc(C(C)C)ccc2c1 ?
N

Would you mind telling me which call this test gave CCOC(=O)NNc1nncc2ccccc12 ?
N

# lookup: test call for Cc1ccc([N+](=O)[O-])cc1S(=O)(=O)O
N

Status in this test for Cc1cc(C)c(C)cc1C ?
N

What outcome does the record of this test show for CC(=O)Nc1nnc(S(N)(=O)=O)s1 ?
N

GET /call?item= CC=C1CC2C=CC1C2 (stereo not given) returns the recorded outcome of this test.
N

What was the test verdict on S=C(NC1CCCCC1)NC1CCCCC1 ?
N

How did this test come out for O=c1cc[nH]c(=S)[nH]1 ?
N

Per the records of this test, what outcome belongs to O=C1CCCC(=O)O1 ?
N

Fill in: this test's call for CC(=O)[C@H]1[C@H](C#N)C[C@H]2[C@@H]3CC=C4C[C@@H](O)CC[C@]4(C)[C@H]3CC[C@@]21C is ___
N

Outcome? Cc1cc(C)c(C)c(O)c1
N

Please state the recorded outcome for this compound: O=C1c2cccc(O)c2C(=O)c2c(O)cc(CO)cc21
N

Identify the outcome logged in this assay for the compound shown: CCC(C)(C)C1CCCCC1OC(C)=O (stereo not given)
N

---

read-out: Transforming growth factor beta 1 (TGFb1), TGFB1 (gene 7040); test: BSK_BE3C_TGFb1: BioMAP Diversity Plus: BE3C Assay for Transforming growth factor beta 1 (TGFb1) Biomarker Activity (AID 2283036;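 as to outcome: TGF-b1 protein level measured by ELISA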); details: primary human bronchial epithelial cells; actives raise or lower the signal
The source made the active and inactive calls. How the source made its calls: active means hit-call score of the fitted dose curve at least 0.9, where 1 is the maximum; inactive means score below 0.9.
Give one outcome, nothing more. List: true (active), false (inactive)

>  <Compound>
CC(C)C(=O)C(C)C

>  <Class Label>
false

$$$$
>  <Compound>
C=CCOc1c(Br)cc(Br)cc1Br

>  <Class Label>
true

$$$$
>  <Compound>
CCOc1nc(F)cc2nc(S(=O)(=O)Nc3c(Cl)cccc3C(=O)OC)nn12

>  <Class Label>
false

$$$$
>  <Compound>
C#CC1(O)CC[C@H]2[C@@H]3CCC4=CCCC[C@@H]4[C@H]3CC[C@@]21C (stereo not given in full)

>  <Class Label>
false

$$$$
>  <Compound>
CC(C)(c1cc(Br)c(OCCO)c(Br)c1)c1cc(Br)c(OCCO)c(Br)c1

>  <Class Label>
false

$$$$

Given O=c1c2ccccc2oc2ccccc12 , state the outcome it received in this test.
false

What is the recorded call for this compound in the test? C=CC(=O)OCC(Br)CBr (stereo not given)
false

Which result was noted for this compound in the test: C=CC=CC=CCCCCC
false

So what was the verdict on CCCCNc1ccc(NCCCC)c2c1C(=O)c1ccccc1C2=O in this test?
true

Could you check what this test reported for CC1OC1C1CCC2(C)OC2C1 (stereo not given) ?
false

Can you look up the reported call for O=Nc1ccc(O)cc1 for me?
false

Please share the test call associated with O=C(Cl)c1cc(C(=O)Cl)cc(C(=O)Cl)c1 .
false

For c1ccc2c(c1)ccc1ncccc12 , which call appears in the assay record?
false

Record request — test call for c1ccc2c(c1)ccc1cc3c(ccc4ccccc43)cc12
false

Hi team, can someone confirm the assay call for CCO[Si](CCCN=C=O)(OCC)OCC ?
false

What outcome does the record of this test show for COCc1c(C(C)C)nc(C(C)C)c(/C=C/[C@@H](O)C[C@@H](O)CC(=O)O)c1-c1ccc(F)cc1 ?
false

Called result for COc1ccc2nc(N)sc2c1
false

Each compound tested received a call. Report the one for C/C=C\C/C=C/CCCCCCCCOC(C)=O .
false

Recorded test outcome, item CCCCC/C=C\C/C=C\CCCCCCCC(=O)OC
false

Hi, sorry to bother you, what did the test record for S=C(NC1CCCCC1)NC1CCCCC1 ?
false

---

Assay: ATG_GAL4_TRANS: Attagene TRANS-FACTORIAL HepG2 Assay for GAL4 (Internal Marker) (AID 2282976)
Settings: HepG2 Attagene TRANS GAL4 internal marker reporter
Method: ATG_TRANS is a cell-based, multiplexed-readout assay that uses HepG2, a human liver cell line, with measurements taken at 24 hours after chemical dosing in a 24-well plate.ATG_GAL4_TRANS is one of 30 assay component(s) measured or calculated from the ATG_TRANS assay. […] This assay endpoint, ATG_GAL4_TRANS, was analyzed in the positive analysis fitting direction relative to DMSO as the negative control and baseline of activity. […]
Records with an inconclusive call do not appear. Active and inactive are the calls of the source. Rule for the calls: active = hit-call score of the fitted dose curve at least 0.9, where 1 is the maximum; inconclusive = response in the unintended direction; inactive = score below 0.9.
Measure: outcome

Some solved cases for reference:
>  <Compound>
Clc1nc2ccccc2s1

>  <Result>
inactive

$$$$
>  <Compound>
C=C[Si](OC(C)=O)(OC(C)=O)OC(C)=O

>  <Result>
inactive

$$$$
>  <Compound>
CCCCCCCC/C=C\CCCCCCCC(=O)O

>  <Result>
inactive

$$$$
>  <Compound>
C=C(C)CCO

>  <Result>
inactive

$$$$
>  <Compound>
O=C1CC2CC1C1CCCC21 (stereo unspecified)

>  <Result>
inactive

$$$$

Please find the next compound below.
Record summary for CCC(CO)CO : reported outcome = inactive
